Cited source: a melting point compilation (Tetko et al.)

melting point strictly less than 60 °C = yes. Otherwise no.

{"compound": "CCC(C(=O)Nc1ccc(C)cc1)C1CCC(OC)CC1 (stereo unspecified)", "cat": "no"}
{"compound": "CCOC(=O)C(C)C(=O)CC(O)CC1CC=C(C)C1(C)C (stereo unspecified)", "cat": "no"}
{"compound": "C[Si]1(C)O[Si](C)(C)O[Si](C)(C)O[Si](C)(C)O[Si](C)(C)O1", "cat": "yes"}
{"compound": "O=C(O)Cc1cccs1", "cat": "no"}
{"compound": "C1CCC2OC2C1 (stereo unspecified)", "cat": "yes"}
{"compound": "N#Cc1ccc(N)c(C(F)(F)F)c1", "cat": "no"}
{"compound": "CC(C)=CCCC(C)C1CCC2(C)C3=C(CCC12C)C1(C)CCC(O)C(C)(C)C1CC3 (stereo unspecified)", "cat": "no"}
{"compound": "O=C(NCCc1cc([N+](=O)[O-])c(CCNC(=O)c2ccccc2)c([N+](=O)[O-])c1)c1ccccc1", "cat": "no"}

---

Criterion: melting point strictly under 100 °C. Met: 1. Not met: -1.

{"molecule": "CC(O)COC(C)(C)C (stereo unspecified)", "cat": 1}
{"molecule": "O=C(/C=C/c1ccc(-c2ccc(Cl)cc2)o1)c1ccco1", "cat": -1}
{"molecule": "CC1(C)C2CCC1(C)C(NC(=O)c1ccc([N+](=O)[O-])cc1)C2NC(=O)c1ccc([N+](=O)[O-])cc1 (stereo unspecified)", "cat": -1}
{"molecule": "CC(C)(C)c1nnc(NS(=O)(=O)c2ccccc2)s1", "cat": -1}
{"molecule": "CCOC(=O)c1cnc2sc(C(F)(F)F)nn2c1=N", "cat": -1}

---

Quick reference: melting point of the listed items.

{"molecule": "CCC(CO)(CO)COCC(CC)(CO)CO", "melting point [°C]": 110}
{"molecule": "Cc1cnc2c(ccc3c(C)c(C)cnc32)c1C", "melting point [°C]": 278}
{"molecule": "CCCCC(NC(=O)OCC1c2ccccc2-c2ccccc21)C(=O)O (configuration not stated)", "melting point [°C]": 141}
{"molecule": "CNc1ccccc1", "melting point [°C]": -57}
{"molecule": "Cc1cccc(C)c1NC(=O)C1CCCCN1C (configuration not stated)", "melting point [°C]": 150}
{"molecule": "Nc1ncccc1I", "melting point [°C]": 90}
{"molecule": "O=C1CCCC2C3CCCN4CCCC(CN12)C34 (configuration not stated)", "melting point [°C]": 76}
{"molecule": "CC(=O)N(Nc1ccccc1)c1ccc(-c2ccc(N(Nc3ccccc3)C(C)=O)cc2)cc1", "melting point [°C]": 235}
{"molecule": "NN=C(c1ccccc1)c1ccccc1", "melting point [°C]": 96.5}

---

Dear colleague, classification is by melting point, with ranges listed here: category 1 = under 30 °C, category 2 = from 30 °C up to 100 °C, category 3 = 100 °C and over

{"molecule": "C=CC(C)(O)CCC=C(C)CCC=C(C)C (centres undefined)", "cat": "category 1"}
{"molecule": "N=C(NCCCC(N)C(=O)O)N[N+](=O)[O-] (centres undefined)", "cat": "category 3"}
{"molecule": "COc1ccc(Cl)cc1C", "cat": "category 2"}
{"molecule": "Nc1c(Cl)cccc1C(=O)O", "cat": "category 3"}
{"molecule": "CCCCC1CCCC1", "cat": "category 1"}
{"molecule": "CNC1(c2ccccc2Cl)CCCCC1=O (centres undefined)", "cat": "category 2"}
{"molecule": "S=C(Oc1ccccc1)Oc1ccccc1", "cat": "category 3"}
{"molecule": "NS(=O)(=O)c1cc2c(cc1C(F)(F)F)NC(Cc1ccccc1)NS2(=O)=O (centres undefined)", "cat": "category 3"}
{"molecule": "O=C(c1ccccc1)C(F)(F)F", "cat": "category 1"}
{"molecule": "COc1ccccc1OCC(=O)O", "cat": "category 3"}
